Molecular target: human A2a receptor (Homo sapiens)
Sequence (P29274 whole entry): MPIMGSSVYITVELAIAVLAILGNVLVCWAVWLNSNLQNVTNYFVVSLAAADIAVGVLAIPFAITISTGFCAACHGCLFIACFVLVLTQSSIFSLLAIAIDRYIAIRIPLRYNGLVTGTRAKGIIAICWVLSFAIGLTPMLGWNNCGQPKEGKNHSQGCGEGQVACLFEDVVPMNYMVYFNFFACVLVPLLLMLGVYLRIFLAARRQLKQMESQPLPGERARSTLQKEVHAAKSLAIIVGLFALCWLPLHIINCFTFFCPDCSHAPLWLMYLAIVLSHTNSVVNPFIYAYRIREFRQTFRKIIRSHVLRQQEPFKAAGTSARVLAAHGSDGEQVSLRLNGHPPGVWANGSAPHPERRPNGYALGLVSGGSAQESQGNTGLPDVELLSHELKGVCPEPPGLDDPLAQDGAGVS
Assay: Adenosine antagonistic activity, radioligand binding with [3H]CGS 21680
Details: [3H]CGS 21680 20 nM
Procedure: Test 1: Adenosine Antagonistic Activity The adenosine antagonistic activity [Ki(nM)] of the test compound was examined by radioligand binding techniques using 8-cyclopentyl-1,3-dipropylxanthine, [dipropyl-2,3-^3H(N)] ([^3H]DPCPX, 4.5 nM) for human A1 receptor and [^3H]CGS 21680 (20 nM) for human A2a receptor.
quantityKind: Ki (nM)

# givenSmiles, Ki, nM
rows = [
    ("Cn1cc(-c2c(-c3ccccc3)nn3ccncc23)ccc1=O", 3.28),
]

(a) CCn1cc(-c2c(-c3ccc(F)cc3)nn3ccncc23)ccc1=O
(b) O=c1ccc(-c2c(-c3ccccc3)nn3ccncc23)c[nH]1
Name the one with the greater Ki value, either a or b as given. Selection: enter the item's label.
a
(a: 4.44 nM, b: 0.68 nM)
